Each entry below lists one item and its recorded pIC50 value.
Test system: HCT-116
test_details: Antiproliferative activity against human HCT-116 cells incubated for 72 hrs by MTT assay
Type: functional, cell-based
condition_description: HCT-116, 72 h
pIC50: −log10 of the molar value.

[
  {
    "compound": "COc1cc(F)ccc1-c1ncnc(Nc2cccc(C[S@](C)(=N)=O)c2)n1",
    "reading_qualifier": "=",
    "pIC50": 5.53
  },
  {
    "compound": "COc1cc(F)ccc1-c1ncnc(Nc2cccc(CS(C)(=O)=NC(=O)CCCCCC(=O)NCCNc3cccc4c3C(=O)N(C3CCC(=O)NC3=O)C4=O)c2)n1 (configuration not stated)",
    "reading_qualifier": "=",
    "pIC50": 5.09
  },
  {
    "compound": "COc1cc(N2CCN(CCCCCC(=O)NCCNc3cccc4c3C(=O)N(C3CCC(=O)NC3=O)C4=O)CC2)ccc1-c1ncnc(Nc2cccc(CS(C)(=N)=O)c2)n1 (configuration not stated)",
    "reading_qualifier": "<",
    "pIC50": 4.30
  },
  {
    "compound": "COc1cc(F)ccc1-c1ncnc(Nc2cccc(CS(C)(=O)=NC(=O)CCC(=O)CCC(=O)NCCCCCNc3cccc4c3C(=O)N(C3CCC(=O)NC3=O)C4=O)c2)n1 (configuration not stated)",
    "reading_qualifier": "=",
    "pIC50": 5.32
  },
  {
    "compound": "COc1cc(N2CCN(CCCCCCCC(=O)NCCNc3cccc4c3C(=O)N(C3CCC(=O)NC3=O)C4=O)CC2)ccc1-c1ncnc(Nc2cccc(CS(C)(=N)=O)c2)n1 (configuration not stated)",
    "reading_qualifier": "<",
    "pIC50": 4.30
  },
  {
    "compound": "COc1cc(F)ccc1-c1ncnc(Nc2cccc(CS(C)(=O)=NC(=O)COCCOCCOCC(=O)NCCCCCNc3cccc4c3C(=O)N(C3CCC(=O)NC3=O)C4=O)c2)n1 (configuration not stated)",
    "reading_qualifier": "=",
    "pIC50": 5.51
  },
  {
    "compound": "COc1cc(N2CCN(CCCCCCCCCC(=O)NCCNc3cccc4c3C(=O)N(C3CCC(=O)NC3=O)C4=O)CC2)ccc1-c1ncnc(Nc2cccc(CS(C)(=N)=O)c2)n1 (configuration not stated)",
    "reading_qualifier": "<",
    "pIC50": 4.30
  }
]
